- system: PD-1/PD-L1 interaction (PD-1-Ig / PD-L1-His) (Homo sapiens, UniProt Q9NZQ7)
- Construct: hPDL1(18-239)-TVMV-His; TVMV protease site linker (C); made in house; host or cells: HEK293T
- Sequence (Q9NZQ7 with tags, fused parts or gaps): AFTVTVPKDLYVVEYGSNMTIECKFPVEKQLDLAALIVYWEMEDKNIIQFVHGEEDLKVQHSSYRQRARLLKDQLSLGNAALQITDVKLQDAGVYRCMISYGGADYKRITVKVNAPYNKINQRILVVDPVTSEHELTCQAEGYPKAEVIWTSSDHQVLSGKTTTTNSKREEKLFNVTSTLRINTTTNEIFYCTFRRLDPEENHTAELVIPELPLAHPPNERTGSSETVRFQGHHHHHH
- procedure summary: PD-1/PD-L1 Homogenous Time-Resolved Fluorescence (HTRF) binding assay
- protocol conditions: IC50 range class; PD-L1-His 10 nM, PD-1-Ig 20 nM; read-out: Range or IC50
Can you tell me IC50 for the items I'm about to list?

// solved cases for IC50 follow
Cc1c(OCCCN(C)CCC(N)=O)cccc1-c1cccc(OCCCN2CC[C@@H](O)C2)c1C [Example 2054] = 20.1 to 90 nM
Cc1c(OCCCNCC(O)C(=O)O)cccc1-c1cccc(OCCCN2CC[C@@H](O)C2)c1C (stereo partly drawn) [Example 2016] = 20.1 to 90 nM
Cc1c(COc2cc(OCc3cncc(C#N)c3)c(CN3C(=O)OCC3CO)cc2Cl)cccc1-c1cccc(COc2cc(OCc3cncc(C#N)c3)c(CN3C(=O)OCC3CO)cc2Cl)c1C (stereo not drawn) [Example 2133] = 90.1 to 1000 nM
Cc1c(OCCCN2CC[C@@H](O)C2)cccc1-c1cccc(OCCCN2CC[C@@H](O)C2)c1C#N [Example 3025] = 90.1 to 1000 nM
Cc1ccc(OCCCN2CC[C@@H](O)C2)cc1-c1cccc(OCCCN2CC[C@@H](O)C2)c1C [Example 1004] = 1000 to 10000 nM

stdin: Hello, I am looking for reported IC50 with PD-1/PD-L1 interaction (PD-1-Ig / PD-L1-His) (Homo sapiens, UniProt Q9NZQ7) for Cc1c(COc2cc(OCc3cncc(C#N)c3)c(CN[C@H](C(=O)O)C(C)(C)O)cc2Cl)cccc1-c1cccc(COc2cc(OCc3cncc(C#N)c3)c(CN[C@H](C(=O)O)C(C)(C)O)cc2Cl)c1C [Example 40090] . Could you help?
stdout: 0.04 to 20 nM

---

- system: PD-1/PD-L1 interaction (PD-1-Ig / PD-L1-His) (Homo sapiens, UniProt Q9NZQ7)
- Construct: hPDL1(18-239)-TVMV-His; TVMV protease site linker (C); made in house; host or cells: HEK293T
- procedure summary: PD-1/PD-L1 Homogenous Time-Resolved Fluorescence (HTRF) binding assay
- protocol conditions: numeric IC50; PD-L1-His 10 nM, PD-1-Ig 20 nM; read-out: Range or IC50
Kindly supply the reported IC50 values for the records listed here.
Numbers only, in nM.

Examples with their reported IC50 follow.
Cc1c(COc2cc(OCc3cncc(C#N)c3)c(CNC(C)(CO)C(=O)O)cc2Cl)cccc1-c1cccc(COc2cc(OCc3cncc(C#N)c3)c(CNC(C)(CO)C(=O)O)cc2Cl)c1C (stereo not drawn) = 1.1
Cc1c(OCCCNCCc2ccncc2)cccc1-c1cccc(OCCCN[C@@H]2C[C@H](CO)[C@@H](O)[C@H]2O)c1C = 7.1

stdin: Form field: reported IC50 of Cc1c(COc2cc(OCc3cncc(C#N)c3)c(CO)cc2Cl)cccc1-c1cccc(COc2cc(OCc3cncc(C#N)c3)c(CNC(C(=O)O)C(=O)O)cc2Cl)c1C
stdout: 23

---

Task for the reader: assign each of the following compounds its reported IC50.
- system: PD-1/PD-L1 interaction (PD-1-Ig / PD-L1-His) (Homo sapiens, UniProt Q9NZQ7)
- Construct: hPDL1(18-239)-TVMV-His; TVMV protease site linker (C); made in house; host or cells: HEK293T
- procedure summary: PD-1/PD-L1 Homogenous Time-Resolved Fluorescence (HTRF) binding assay
- protocol conditions: IC50 range class; PD-L1-His 10 nM, PD-1-Ig 20 nM; read-out: Range or IC50

Example cases with answers are listed next.
Cc1c(COc2cc(OCc3cncc(C#N)c3)c(CO)cc2Cl)cccc1-c1cccc(COc2cc(OCc3cncc(C#N)c3)c(CN[C@H](C(=O)O)[C@H](C)O)cc2Cl)c1C = 0.04 to 20 nM
Cc1c(COc2cc(OCc3cncc(C#N)c3)c(CN[C@@H](C(=O)O)[C@H](C)O)cc2Cl)cccc1-c1cccc(COc2cc(OCc3cncc(C#N)c3)c(CN[C@@H](C(=O)O)[C@@H](C)O)cc2Cl)c1C = 0.04 to 20 nM
Cc1c(COc2cc(OCc3cncc(C#N)c3)c(CNC[C@H](O)CO)cc2Cl)cccc1-c1cccc(COc2cc(OCc3cncc(C#N)c3)c(CNC[C@H](O)CO)cc2Cl)c1C = 0.04 to 20 nM
COC(=O)[C@](C)(CO)NCc1cc(Cl)c(OCc2cccc(-c3cccc(COc4cc(OCc5cncc(C#N)c5)c(CN[C@@](C)(CO)C(=O)OC)cc4Cl)c3C)c2C)cc1OCc1cncc(C#N)c1 = 20.1 to 90 nM
Cc1c(COc2cc(OCc3cncc(C#N)c3)c(CO)cc2Cl)cccc1-c1cccc(COc2cc(OCc3cncc(C#N)c3)c(CNC(CO)CO)cc2Cl)c1C = 90.1 to 1000 nM

Each of the following entries comes with a recorded value; kindly state IC50 for each.
1. Cc1c(OCCCN(C)CCO)cccc1-c1cccc(OCCCN2CC[C@@H](O)C2)c1C
2. COc1cc(OCc2cccc(-c3cccc(COc4cc(OCc5cncc(C#N)c5)c(CN(C)[C@@H](CCO)C(=O)O)cc4Cl)c3C)c2C)c(Cl)cc1CN(C)[C@@H](CCO)C(=O)O
3. Cc1c(OCCCN2C[C@H](O)C[C@H]2C(=O)O)cccc1-c1cccc(OCCCN2C[C@H](O)C[C@H]2C(=O)O)c1Cl
4. Cc1c(OCCCNCCN2CCOCC2)cccc1-c1cccc(OCCCN2CC[C@@H](O)C2)c1C
5. N#Cc1cncc(COc2cc(OCc3cccc(-c4cccc(COc5cc(OCc6cncc(C#N)c6)c(CN6CCCC[C@H]6C(=O)O)cc5Cl)c4)c3)c(Cl)cc2CN2CCCC[C@H]2C(=O)O)c1
6. Cc1c(OCCCNC[C@H](O)CO)cccc1-c1cccc(OCCCNC[C@H](O)CO)c1C
7. Cc1c(OCCCN2CCC[C@H](C(=O)O)C2)cccc1-c1cccc(OCCCN2CCC[C@H](C(=O)O)C2)c1C

stdout:
1: 20.1 to 90 nM; 2: 0.04 to 20 nM; 3: > 10000 nM; 4: 20.1 to 90 nM; 5: 0.04 to 20 nM; 6: 0.04 to 20 nM; 7: 90.1 to 1000 nM

---

- system: PD-1/PD-L1 interaction (PD-1-Ig / PD-L1-His) (Homo sapiens)
- Construct: hPDL1(18-239)-TVMV-His; TVMV protease site linker (C); made in house; host or cells: HEK293T
- procedure summary: PD-1/PD-L1 Homogenous Time-Resolved Fluorescence (HTRF) binding assay
- protocol conditions: IC50 range class; PD-L1-His 10 nM, PD-1-Ig 20 nM; read-out: Range or IC50
experimental readout: IC50

Cc1c(COc2cc(OCc3cncc(C#N)c3)c(CO)cc2Cl)cccc1-c1cccc(COc2cc(OCc3cncc(C#N)c3)c(CN[C@H](CCO)C(=O)O)cc2Cl)c1C = 0.04 to 20 nM
COc1cc(OCc2cccc(-c3cccc(COc4cc(OC)c(CNCCC(=O)O)cc4Cl)c3C)c2C)c(Cl)cc1CNCCC(=O)O = 0.04 to 20 nM
C[C@@](CO)(NCc1cc(Cl)c(OCc2cccc(-c3cccc(COc4cc(OCc5cncc(C#N)c5)c(CN[C@@](C)(CO)C(=O)O)cc4Cl)c3Cl)c2Cl)cc1O)C(=O)O = 0.04 to 20 nM
Cc1c(COc2cc(OCc3cncc(C#N)c3)c(CN[C@H](C(N)=O)C3CC3)cc2Cl)cccc1-c1cccc(COc2cc(OCc3cncc(C#N)c3)c(CN[C@H](C(N)=O)C3CC3)cc2Cl)c1C = 20.1 to 90 nM
Cc1c(OCCCN2CC[C@@H](O)C2)cccc1-c1cccc(OCc2cncc(C#N)c2)c1C = 20.1 to 90 nM

Hi, could you look up IC50 for each item in my list?
1. Cc1c(COc2cc(OCc3cncc(C#N)c3)c(CN(C)[C@@H](CCO)C(=O)O)cc2Cl)cccc1-c1cccc(COc2cc(OCc3cncc(C#N)c3)c(CN(C)[C@@H](CCO)C(=O)O)cc2Cl)c1C
2. Cc1c(COc2cc(OCc3ccc(-n4cccn4)nc3)c(CN(C)C(CO)CO)cc2Cl)cccc1-c1cccc(COc2cc(OCc3ccc(-n4cccn4)nc3)c(CN(C)C(CO)CO)cc2Cl)c1C
3. Cc1c(OCCCNCCc2ccccn2)cccc1-c1cccc(OCCCN2CC[C@@H](O)C2)c1C
4. Cc1c(COc2cc(OCc3cncc(C#N)c3)c(CN(C[C@H](O)CO)C(CO)CO)cc2Cl)cccc1-c1cccc(COc2cc(OCc3cncc(C#N)c3)c(CN(C[C@H](O)CO)C(CO)CO)cc2Cl)c1C
5. COc1cc(OCc2cccc(-c3cccc(COc4cc(OC)c(CN(C)Cc5cncs5)cc4Cl)c3C)c2C)c(Cl)cc1CN(C)Cc1cncs1
6. Cc1c(OCCCNC(CO)c2ccncc2)cccc1-c1cccc(OCCCN2CC[C@@H](O)C2)c1C (stereo partly drawn)
7. Cc1c(OCCCNC[C@H](O)CO)cccc1-c1cccc(OCCCN2CC[C@@H](O)C2)c1C

stdout:
0.04 to 20 nM
90.1 to 1000 nM
20.1 to 90 nM
0.04 to 20 nM
90.1 to 1000 nM
90.1 to 1000 nM
20.1 to 90 nM
